# PROCEDURE TEXT: Pharmacokinetics after single p.o. dose in C57BL/6J mice (plasma LC-MS/MS)
# MEASUREMENT CONDITIONS: C57BL/6J, mouse, plasma, po, 30 mg/kg
MEASURED PROPERTY: MRT inf

[[record]]
chemical_string = "COc1cccc(CNc2ccc(S(=O)(=O)Nc3nc4ccccc4s3)cc2)c1O"
measured_property = "MRT inf"
reported_result = "2.57 h"


---

# PROCEDURE TEXT: Pharmacokinetics after single p.o. dose in NOD.ShiLt/J mice (plasma LC-MS/MS)
# Assay type: in vivo, mouse
# MEASUREMENT CONDITIONS: mouse, plasma, po, 30 mg/kg p.o., mean ± SD
MEASURED PROPERTY: AUC(0-inf) (ng·h/mL)

[[record]]
compound = "COc1cccc(CNc2ccc(S(=O)(=O)Nc3nc4ccccc4s3)cc2)c1O [VLX-1005]"
measured_property = "AUC(0-inf)"
reported_result = 13200


---

# PROCEDURE TEXT: Pharmacokinetics after single p.o. dose in C57BL/6J mice (plasma LC-MS/MS)
# MEASUREMENT CONDITIONS: C57BL/6J, mouse, plasma, po, 30 mg/kg
MEASURED PROPERTY: AUC(0-inf) (ng·h/mL)

[[record]]
chemical_string = "COc1cccc(CNc2ccc(S(=O)(=O)Nc3nc4ccccc4s3)cc2)c1O"
unit_label = "ng·h/mL"
reported_result = 15100

